src = patent US5665515A

# protocol: pKa of the mercapto group by titration with hydrochloric acid in water
# Type: physicochemical
# particulars: 0.002 mole/liter, dissolved at pH 11, titrated with 0.1 mole/liter hydrochloric acid
measurementName: pKa

>>> endpointvalue("CCCCN(CCCC)C(=O)Cn1nnnc1S")
3.3
>>> endpointvalue("Sc1nnnn1-c1ccccc1")
3.1
>>> endpointvalue("CCCCn1nnnc1S")
3.2
>>> endpointvalue("CCCCCCCCn1nnnc1S")
3.4
